The reported numbers originate from PubChem BioAssay (NCI).

test system: IGROV1 ovarian; experiment: NCI tumour cell line growth inhibition, 48 h; in the data active = GI50 below about 0.43 µM; inactive = the rest
Pick one and only one: YES (active), NO (inactive)

Asked: In this assay, the call recorded for COc1cc2c(/C=C3/C(=O)Nc4cccc(Cl)c43)c(Cl)n(Cc3ccccc3)c2cc1C was what?
Given back: NO

Asked: # lookup: test call for COc1ccc(S(=O)(=O)N(Cc2ccc3c(n2)C=CC(C)(C)O3)C2CCC2)cc1OC
Given back: YES

Asked: Assay outcome for Cn1cc(C2=C(c3cn(CCCN=C(N)N)c4ccccc34)C(=O)NC2=O)c2ccccc21 : what was it?
Given back: NO

Asked: Hi team, can someone confirm the assay call for Cn1cc(-c2csc(-c3cccc(F)c3)n2)c2cccnc21 ?
Given back: NO

Asked: Call for entry NC(N)=NC(N)=Nc1cc2ccccc2c2ccccc12 :
Given back: NO

Asked: Record request — test call for CC(=O)[O][Hg][c]1c(C)c(C)c(C)c(C)c1C
Given back: NO

###

What GI50 was measured for each of the following?
system: PC-3 prostate; test: NCI tumour cell line growth inhibition, 48 h

Asked: Name the reported GI50 value associated with the compound C[C@]12CC[C@@H]3c4ccc(O)cc4CC[C@H]3[C@@H]1CC[C@@H]2NS(=O)(=O)c1ccc(C(F)(F)F)cc1
Given back: 1.99 µM

Asked: Any idea what its GI50 is? The compound is COc1ccc(/C(=N/Nc2ccc([N+](=O)[O-])cc2)Sc2cc(Cl)c(C)cc2S(N)(=O)=O)cc1
Given back: 5.2 µM

Asked: Could you share which GI50 value was measured for COC(=O)[C@]12CCC(C)(C)C[C@H]1C1=CC[C@@H]3[C@@]4(C)C/C(=C/c5cccnc5)C(=O)C(C)(C)[C@@H]4CC[C@@]3(C)[C@]1(C)CC2 ?
Given back: 2.37 µM

Asked: Entry under review: CC(=O)[O][Hg][c]1c(C)c(C)c(C)c(C)c1C . Reported GI50?
Given back: 2 µM

Asked: Report GI50 for NCCCCn1c2c(c3ccccc3c1=O)C(=O)c1ccccc1-2 please.
Given back: 0.193 µM

Asked: State the recorded GI50 for this entry: COc1ccc(-c2cc3c(nn2)-c2ccccc2C3=O)cc1
Given back: > 100 µM

Asked: Given the entry CC(C)(C)OC(=O)N(CCCN(CCn1c2c(c3ccccc3c1=O)C(=O)c1ccccc1-2)C(=O)OC(C)(C)C)CCn1c2c(c3ccccc3c1=O)C(=O)c1ccccc1-2 , report its measured GI50.
Given back: > 50 µM

Asked: Which GI50 value belongs to COc1cccc(N=Cc2c3ccccc3c(=O)n3c2oc2ccccc23)c1 ?
Given back: 3.81 µM

###

Would you kindly list TGI for each of these compounds?
tested on: 786-0 renal; experiment: NCI tumour cell line growth inhibition, 48 h

Asked: Recorded TGI for CCCCCCCCCCC(O)C1CCC(C2CCC(C(O)CCCCC(O)CCCCCC(O)CC3=CC(C)OC3=O)O2)O1 (stereo unspecified) , please?
Given back: > 25 µM

Asked: Query: TGI; subject: COc1ccc(-c2nc(-c3nc4ccc(C)cc4[nH]3)c3ccccn23)cc1
Given back: > 100 µM

Asked: Which measured TGI value corresponds to Cc1ccc(S(=O)(=O)OC2C3OC(C)(C)OC3OC2C(c2cc(O)c3c(c2O)C(=O)c2ccccc2C3=O)c2cc(O)c3c(c2O)C(=O)c2ccccc2C3=O)cc1 (stereo unspecified) ?
Given back: > 10 µM

Asked: // returns reported TGI for input CC(=O)[C@]1(O)Cc2c(O)c3c(c(O)c2C(OC2OC(C)C(O)C(O)C2F)C1)C(=O)c1ccccc1C3=O (stereo partly specified)
Given back: > 37.1 µM

Asked: Given the compound Cc1cc(NS(=O)(=O)c2ccc(NC(=O)c3cccc4c(=O)c5ccccc5[nH]c34)cc2)no1 , what is its reported TGI?
Given back: 38.2 µM

Asked: Field request: TGI | item: CC[C@H](C)[C@H](NC(=O)[C@H]1CCCCN1C)C(=O)N(C)[C@H](CCc1nc(C(=O)N[C@@H](Cc2ccccc2)C[C@H](C)C(=O)OC)cs1)C(C)C
Given back: > 11.6 µM

Asked: Given the entry N#Cc1cnsc1 , report its measured TGI.
Given back: > 100 µM

Asked: Returns the measured TGI for the input compound. Input: CN(C)/N=C(\CCN1CCCC1)CC(c1ccccc1)c1c(O)c2ccccc2oc1=O (stereo unspecified)
Given back: > 100 µM

Asked: TGI for CC1CN=C(Nc2ccc(S(N)(=O)=O)cc2)S1 (stereo unspecified) ?
Given back: > 100 µM

Asked: So what's the measured TGI for this one? CC(=O)SCCC1c2[nH]c3ccccc3c2CCN1O (stereo unspecified)
Given back: > 100 µM

Asked: Given COC(=O)CSc1n[nH]c(-c2ccc(O)c([N+](=O)[O-])c2)n1 , state its recorded TGI.
Given back: > 100 µM

Asked: What value of TGI has been reported for the following compound? CC(C)CC(N)C(=O)O (stereo unspecified)
Given back: > 100 µM

Asked: Query: TGI; subject: CCCN(CCCCC(NC(C)=O)C(=O)NCc1ccccc1)C(=O)N(CCCl)N=O (stereo unspecified)
Given back: > 89.4 µM

Asked: Quick one: TGI of COC(=O)C(=O)C(C(=O)C(=O)Nc1ccc(C)cc1C)c1nc2ccccc2[nH]c1=O (stereo unspecified) ?
Given back: > 100 µM

Asked: TGI for Brc1ccc2c(-c3nc(-c4c[nH]c5ccc(Br)cc45)cs3)c[nH]c2c1 ?
Given back: 6.33 µM

Asked: What does the record list as TGI for N#[O+].O=S(=O)([O-])[O-].[NH2-].[NH2-].[NH2-].[NH2-].[NH2-].[Ru+5] ?
Given back: > 100 µM

Asked: Tell me the measured TGI of CCC1(O)C(=O)OCc2c1cc1n(c2=O)Cc2cc3c(N)cccc3nc2-1 (stereo unspecified) , please.
Given back: 0.0893 µM

Asked: # TGI lookup, item CCCCCCCCCCCCCCCCCc1cccc(OCOCCOC)c1CO
Given back: > 100 µM

Asked: I am curious: what TGI value has been reported for O=C(CCCSc1nc(-c2ccc(Cl)cc2)cc(-c2ccc(Cl)cc2)n1)NO ?
Given back: 13.1 µM

Asked: Item under review: COc1ccc2c(c1)OCc1c-2oc2ccccc2c1=O . Reported TGI?
Given back: > 100 µM

Asked: Entry under review: CSc1nc(Cl)c2c(n1)Sc1nc3cc4c(cc3n1C2O)OCO4 (stereo unspecified) . Reported TGI?
Given back: > 39 µM

###

What TGI was measured for each of the following?
tested on: T-47D breast; assay: NCI tumour cell line growth inhibition, 48 h
Number in µM, nothing else.

Asked: Write down the reported TGI of C=C1C(=O)O[C@H]2[C@H]1CC/C(COC(=O)/C=C\C(=O)NCc1ccc(Cn3c(=O)sn(-c4ccc(C#N)cc4)c3=O)cc1)=C\CC[C@@]1(C)O[C@@H]21 , test system: T-47D breast.
Given back: 2.18

Asked: Kindly state the measured TGI obtained for COc1ccc(C(=O)/C=C/c2cccnc2Nc2cc(OC)c(OC)c(OC)c2)cc1 with T-47D breast.
Given back: 15.6

Asked: What is its TGI for T-47D breast? Entry: O=C(C[C@@H](C(=O)NCc1cccc(C(F)(F)F)c1)N1C(=O)[C@@H](N2C(=O)OC[C@@H]2c2ccccc2)[C@H]1/C=C/c1ccccc1)NC1CCN(Cc2ccccc2)CC1
Given back: 38.9

Asked: Provide value of TGI for this record tested with T-47D breast: CCOc1cc(NC(C)=O)ccc1C(=O)NN1C(=O)C(Oc2ccccc2)C1c1ccc(O)c(OC)c1 (stereo unspecified)
Given back: 77.9

Asked: Field: TGI (T-47D breast). Entry: Oc1cc(O)c2c(c1)O[C@H](c1cc(O)c(O)c(O)c1)[C@H](O)C2
Given back: 80.7

Asked: Lab note: need TGI for COc1ccc(C2CC(=O)c3c(O)c(OC)c(OC)c(OC)c3O2)c(O)c1 (stereo unspecified) on T-47D breast, anyone have it?
Given back: 24.6

Asked: For T-47D breast, provide TGI of Clc1cccc(Cl)c1C1SCC2=Nc3ccccc3CN21 (stereo unspecified) please.
Given back: 85.1

Asked: TGI of COc1cc(Cn2c(-c3ccccc3)cc3c2-c2oncc2CC3)cc(OC)c1OC on T-47D breast?
Given back: 81.2

Asked: Give TGI (T-47D breast) of the following compound: CCCCn1c(-c2ccc(C(=O)O/N=C(\N)c3ccc(OC)cc3)cc2)nc(-c2ccccc2)c1-c1ccccc1
Given back: 4.59

###

So I've got a bunch of compounds here, and I need their TGI values.
tested on: MCF7 breast; assay: NCI tumour cell line growth inhibition, 48 h
Kindly answer with a numeric value in µM, unit omitted.

Asked: Given the entry COC(=O)c1ccc2c(c1)CC1(C2)Cc2cc3c(cc2C1=O)CCC3 (stereo unspecified) , report its measured TGI.
Given back: 50.9

Asked: Query (compound): O=C1C(Br)=CC2(C=C1Br)CCN=c1c(O)c3c(c(O)c12)=NC=N3 ; field requested: TGI
Given back: 28.5

Asked: Dear colleague, I am looking for the recorded TGI of the following compound: CN1CCC(OC(=O)Oc2ccccc2)(c2ccccc2)CC1
Given back: 35.1

Asked: Requested field: TGI. Item: NC(N)=NC(N)=Nc1cc2ccccc2c2ccccc12
Given back: 18.8
